Molecular target: Chymase (Homo sapiens, UniProt P23946)
Sequence (P23946 22-247, species assumed): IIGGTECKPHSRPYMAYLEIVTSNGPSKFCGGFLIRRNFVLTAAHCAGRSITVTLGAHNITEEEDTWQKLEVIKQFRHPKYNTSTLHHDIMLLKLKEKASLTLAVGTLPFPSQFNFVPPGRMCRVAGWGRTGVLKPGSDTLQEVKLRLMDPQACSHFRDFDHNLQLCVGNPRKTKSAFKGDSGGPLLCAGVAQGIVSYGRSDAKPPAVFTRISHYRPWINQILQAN
property: pIC50
Convention used: pIC50 is expressed as -log10 of the molar concentration.

INSERT INTO results (compound, subject_of_test, obs_value) VALUES
  ('CCC[C@@H](CC(=O)NS(=O)(=O)CC)n1c(=O)n(Cc2cn(C)c3cccc(C)c23)c2cccnc21', 'Chymase (Homo sapiens, UniProt P23946)', 8.13);

Below: the item to evaluate.
Requested read-out pIC50, target or system Chymase (Homo sapiens, UniProt P23946), entry Cc1cc2c(cn1)n(Cc1cn(C)c3cccc(C)c13)c(=O)n2[C@H](CC(=O)O)c1ccccc1 8.58
